These measurements were taken from the RNAGym collection of RNA variant scans (doi:10.7554/elife.80360).

B1: Hairpin Ribozyme (parent)
chain: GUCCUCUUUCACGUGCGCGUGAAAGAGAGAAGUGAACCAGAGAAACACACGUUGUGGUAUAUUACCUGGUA

Variants of: B1
Test: self-cleavage, relative activity (ratio to wild type); higher = more cleavage; co-transcriptional

# mutationLabel, self-cleavage
rows = [
    ("U7C A31U", 0.112),
    ("G27U C38A", 0.12),
    ("C12U A28G", 1.19),
    ("A23G G27C", 0.149),
    ("C4U G27A", 0.722),
    ("C10A A28U", 0.483),
    ("A41G A59C", 0.436),
    ("G15A A64U", 0.233),
    ("C16U U20C", 0.86),
    ("A41G C46G", 0.116),
    ("G54A", 0.583),
    ("C3U C6G", 0.288),
    ("G13A U67C", 0.27),
    ("C37A A64C", 0.144),
    ("G40A A64U", 0.139),
    ("C50A G54C", 0.375),
    ("C4G U70C", 0.214),
    ("G34C G69A", 0.896),
    ("G51A G54U", 0.649),
    ("G15C G40C", 0.125),
    ("U20G G27U", 0.154),
    ("G51A U63G", 0.135),
    ("A28C U60G", 0.383),
    ("G1U A44G", 0.0639),
    ("C3G C48A", 0.0662),
    ("A26U C46A", 0.146),
    ("A59U A71C", 0.153),
    ("G17A A43U", 0.105),
    ("A39U U55A", 0.155),
    ("A24U A43C", 0.174),
    ("A49G U53C", 0.363),
    ("C4U C16G", 0.243),
    ("G19U C48G", 0.2),
    ("U55A G69U", 0.146),
    ("U8G U53G", 0.705),
    ("C48A U67C", 0.137),
    ("A36C G57A", 0.125),
    ("C16A G68A", 0.305),
    ("C18A G25C", 0.58),
    ("U8A A35G", 0.483),
    ("C3A C4A", 0.204),
    ("A24U C65U", 0.39),
    ("G29A G32U", 0.0536),
    ("U53A U62G", 0.146),
    ("U63A G68C", 0.225),
    ("G42U U63A", 0.195),
]
